# Test Summary: Spectroscopic properties of the BDM library (absorbance and emission maxima)
# Type: physicochemical
Measured Parameter: λmax (ABS)
Reply with the number, then its unit.

Please review the following examples before continuing.
CC1=CC(/C=C/c2ccc(Br)s2)=[N+]2C1=C(CCN)c1cccn1[B-]2(F)F [BDM-100] = 571 nm
CCc1ccc(/C=C/C2=[N+]3C(=C(CCN)c4cccn4[B-]3(F)F)C(C)=C2)cc1[N+](=O)[O-] [BDM-252] = 556 nm
C=CCOc1ccccc1/C=C/C1=[N+]2C(=C(CCN)c3cccn3[B-]2(F)F)C(C)=C1 [BDM-202] = 559 nm
CC1=CC(/C=C/c2ccsc2)=[N+]2C1=C(CCN)c1cccn1[B-]2(F)F [BDM-369] = 554 nm
CCCCc1ccc(/C=C/C2=[N+]3C(=C(CCN)c4cccn4[B-]3(F)F)C(C)=C2)cc1 [BDM-263] = 559 nm
CC1=CC(/C=C/c2ccccc2OC(F)(F)F)=[N+]2C1=C(CCN)c1cccn1[B-]2(F)F [BDM-365] = 549 nm
COc1cc(/C=C/C2=[N+]3C(=C(CCN)c4cccn4[B-]3(F)F)C(C)=C2)ccc1F [BDM-312] = 557 nm

Q: Please indicate λmax (ABS) recorded for COc1ccc(/C=C/C2=[N+]3C(=C(CCN)c4cccn4[B-]3(F)F)C(C)=C2)cc1Cl [BDM-274]
Result: 562 nm

* * *

# Test Summary: Spectroscopic properties of the BDM library (absorbance and emission maxima)
# Assay type: physicochemical
Quick list: λmax (ABS) per entry.
I only need the number, in nm, no unit after it.

Please review the following examples before continuing.
Cc1cc(/C=C/c2ccc(N(c3ccccc3)c3ccccc3)cc2)n2c1C(CCN)=C1C=CC=[N+]1[B-]2(F)F [BDM-14] = 593
COc1ccc2ccccc2c1/C=C/C1=[N+]2C(=C(CCN)c3cccn3[B-]2(F)F)C(C)=C1 [BDM-61] = 576

Alright, here's another molecule for you.
Q: Please indicate λmax (ABS) recorded for COc1ccc(/C=C/C2=[N+]3C(=C(CCN)c4cccn4[B-]3(F)F)C(C)=C2)c(Cl)c1OC [BDM-372]
Result: 561

* * *

Quick list: λmax (ABS) per entry.
# Test Summary: Spectroscopic properties of the BDM library (absorbance and emission maxima)
# Format: physicochemical
I only need the number, in nm, no unit after it.

Please review the following examples before continuing.
COc1cc(F)c(/C=C/C2=[N+]3C(=C(CCN)c4cccn4[B-]3(F)F)C(C)=C2)cc1OC = 567
CC1=CC(/C=C/c2ccc(Oc3ccccc3)cc2)=[N+]2C1=C(CCN)c1cccn1[B-]2(F)F = 559
CC1=CC(/C=C/c2ccccc2Cl)=[N+]2C1=C(CCN)c1cccn1[B-]2(F)F = 553
COc1ccc(/C=C/C2=[N+]3C(=C(CCN)c4cccn4[B-]3(F)F)C(C)=C2)c(F)c1 = 559
Cc1cc(/C=C/c2cc(C(C)(C)C)ccc2O)n2c1C(CCN)=C1C=CC=[N+]1[B-]2(F)F = 564

Alright, here's another molecule for you.
Q: Please indicate λmax (ABS) recorded for CC1=CC(/C=C/c2ccccc2C)=[N+]2C1=C(CCN)c1cccn1[B-]2(F)F
Result: 554

* * *

Quick list: λmax (ABS) per entry.
# Test Summary: Spectroscopic properties of the BDM library (absorbance and emission maxima)
# Format: physicochemical
I only need the number, in nm, no unit after it.

CC1=CC(/C=C/c2ccc(I)cc2)=[N+]2C1=C(CCN)c1cccn1[B-]2(F)F [BDM-237] = 558
CC1=CC(/C=C/c2ccc(C)cc2)=[N+]2C1=C(CCN)c1cccn1[B-]2(F)F [BDM-208] = 558
COc1cc(/C=C/C2=[N+]3C(=C(CCN)c4cccn4[B-]3(F)F)C(C)=C2)cc(Br)c1OC [BDM-259] = 559
CC1=CC(/C=C/c2ccc(Oc3ccc(C(C)(C)C)cc3)cc2)=[N+]2C1=C(CCN)c1cccn1[B-]2(F)F [BDM-435] = 555
CC1=CC(/C=C/c2ccc(-c3ccccc3)s2)=[N+]2C1=C(CCN)c1cccn1[B-]2(F)F [BDM-65] = 589
CC1=CC(/C=C/c2ccc3ccccc3c2)=[N+]2C1=C(CCN)c1cccn1[B-]2(F)F [BDM-137] = 563
Cc1cc(/C=C/c2ccc(-c3ccccc3)cc2)n2c1C(CCN)=C1C=CC=[N+]1[B-]2(F)F [BDM-5] = 561
CCc1ccccc1/C=C/C1=[N+]2C(=C(CCN)c3cccn3[B-]2(F)F)C(C)=C1 [BDM-251] = 556
CC1=CC(/C=C/c2ccc(-c3cncnc3)cc2)=[N+]2C1=C(CCN)c1cccn1[B-]2(F)F [BDM-199] = 562
COc1ccc(Oc2cccc(/C=C/c3cc(C)c4n3[B-](F)(F)[N+]3=CC=CC3=C4CCN)c2)cc1 [BDM-42] = 554

Q: Please indicate λmax (ABS) recorded for COc1ccc(Oc2ccc(/C=C/C3=[N+]4C(=C(CCN)c5cccn5[B-]4(F)F)C(C)=C3)cc2)cc1 [BDM-178]
Result: 561

Q: Please indicate λmax (ABS) recorded for Cc1cc(/C=C/c2ccc(C=O)cc2)n2c1C(CCN)=C1C=CC=[N+]1[B-]2(F)F [BDM-49]
Result: 562

* * *

# Test Summary: Spectroscopic properties of the BDM library (absorbance and emission maxima)
# Assay type: physicochemical
Measured Parameter: λmax (EM) (nm)
I only need the number, in nm, no unit after it.

Please review the following examples before continuing.
CC1=CC(/C=C/c2c3ccccc3c(C)c3ccccc23)=[N+]2C1=C(CCN)c1cccn1[B-]2(F)F = 541
CC1=CC(/C=C/c2ccccc2Oc2ccc(F)cc2)=[N+]2C1=C(CCN)c1cccn1[B-]2(F)F = 570
CC1=CC(/C=C/c2ccc(Oc3cc(Cl)cc(Cl)c3)cc2)=[N+]2C1=C(CCN)c1cccn1[B-]2(F)F = 567

Alright, here's another compound for you.
Q: Please indicate λmax (EM) recorded for CC1=CC(/C=C/c2ccc(OC(F)F)cc2)=[N+]2C1=C(CCN)c1cccn1[B-]2(F)F
Result: 565

* * *

# Test Summary: Quantum yield measurements
# Assay type: physicochemical
# Condition Description: referred to Rhodamine B in EtOH, excitation 510 nm, emission integrated 540-800 nm
Class (required): determined from φ (quantum yield); valid ranges are bucket A: < 0.2; bucket B: ≥ 0.2 and < 0.4; bucket C: ≥ 0.4

Illustrative cases are given below, each with its answer.
COc1ccc(/C=C/C2=[N+]3C(=C(CCN)c4cccn4[B-]3(F)F)C(C)=C2)cc1 [BDM-110] = bucket C
CC1=CC(/C=C/c2ccc(Br)cc2)=[N+]2C1=C(CCN)c1cccn1[B-]2(F)F [BDM-409] = bucket A
COc1cc(/C=C/C2=[N+]3C(=C(CCN)c4cccn4[B-]3(F)F)C(C)=C2)cc(OC)c1 [BDM-209] = bucket B

Q: Sort into band: CC1=CC(/C=C/c2ccc(Oc3ccc(F)cc3)cc2)=[N+]2C1=C(CCN)c1cccn1[B-]2(F)F [BDM-322]
Result: bucket A

Q: Sort into band: CC1=CC(/C=C/c2cc3ccccc3c3ccccc23)=[N+]2C1=C(CCN)c1cccn1[B-]2(F)F [BDM-440]
Result: bucket B

Q: Sort into band: CCCCN(CCCC)c1ccc(/C=C/C2=[N+]3C(=C(CCN)c4cccn4[B-]3(F)F)C(C)=C2)cc1 [BDM-17]
Result: bucket A

Q: Sort into band: CC1=CC(/C=C/c2ccc(Oc3cc(Cl)cc(Cl)c3)cc2)=[N+]2C1=C(CCN)c1cccn1[B-]2(F)F [BDM-308]
Result: bucket A

Q: Sort into band: CSc1ccc(/C=C/c2cc(C)c3n2[B-](F)(F)[N+]2=CC=CC2=C3CCN)cc1 [BDM-18]
Result: bucket B

Q: Sort into band: CC1=CC(/C=C/c2ccc(C)c(F)c2)=[N+]2C1=C(CCN)c1cccn1[B-]2(F)F [BDM-249]
Result: bucket B

Q: Sort into band: CC1=CC(/C=C/c2cccc(OC(F)(F)C(F)F)c2)=[N+]2C1=C(CCN)c1cccn1[B-]2(F)F [BDM-345]
Result: bucket B

Q: Sort into band: CC1=CC(/C=C/c2ccccc2Oc2ccc(F)cc2)=[N+]2C1=C(CCN)c1cccn1[B-]2(F)F [BDM-341]
Result: bucket B

Q: Sort into band: Cc1cc(/C=C/c2ccc(Cl)cc2)n2c1C(CCN)=C1C=CC=[N+]1[B-]2(F)F [BDM-12]
Result: bucket B

Q: Sort into band: COc1cc(Cl)cc(/C=C/C2=[N+]3C(=C(CCN)c4cccn4[B-]3(F)F)C(C)=C2)c1OC [BDM-282]
Result: bucket A

Q: Sort into band: CC1=CC(/C=C/c2ccsc2)=[N+]2C1=C(CCN)c1cccn1[B-]2(F)F [BDM-369]
Result: bucket B

Q: Sort into band: CC1=CC(/C=C/c2ccc(Br)s2)=[N+]2C1=C(CCN)c1cccn1[B-]2(F)F [BDM-100]
Result: bucket C

Q: Sort into band: Cc1ccc2cccc(/C=C/c3cc(C)c4n3[B-](F)(F)[N+]3=CC=CC3=C4CCN)c2c1 [BDM-34]
Result: bucket C
